Data origin, for the record: PubChem BioAssay AID1745844

# Test system: rodent lifetime carcinogenesis bioassay, tumor incidence TD50
# ASSAY_METHOD_TEXT: carcinogenic potency in animals, long-term in vivo studies, CPDB compilation (AID 1745844)
# TEST_PARAMETERS: rat; strain Sprague-Dawley; females; in feed; site: mammary gland; lesion: adenofibroma; dosed 46 weeks; study length 64 weeks
Please respond with reported TD50 for every item in the list.

Q: Notebook: pull reported TD50 for rodent lifetime carcinogenesis bioassay, tumor incidence TD50, entry O=CNNc1nc(-c2ccc([N+](=O)[O-])o2)cs1
Ans: 52.8 mg/kg/day

Q: Give TD50 (rodent lifetime carcinogenesis bioassay, tumor incidence TD50) of the following compound: Cc1csc(NNC=O)n1
Ans: 14.4 mg/kg/day

====

# Test system: rodent lifetime carcinogenesis bioassay, tumor incidence TD50
# ASSAY_METHOD_TEXT: carcinogenic potency in animals, long-term in vivo studies, CPDB compilation (AID 1745844)
# TEST_PARAMETERS: rat; strain F344/DuCrj; females; in drinking water; site: liver; lesion: hepatocellular carcinoma; dosed 104 weeks; study length 105 weeks
REPORTED_PROPERTY: TD50

Q: Using the record for C1COCCO1 , report its TD50.
Ans: 1120 mg/kg/day

====

# Test system: rodent lifetime carcinogenesis bioassay, tumor incidence TD50
# ASSAY_METHOD_TEXT: carcinogenic potency in animals, long-term in vivo studies, CPDB compilation (AID 1745844)
# TEST_PARAMETERS: rat; strain Donryu; females; in drinking water; site: mammary tissue, wider than the gland; lesion: fibroadenoma; dosed 75 weeks; study length 75 weeks
REPORTED_PROPERTY: TD50 (mg/kg/day)
Write it as a number; the unit mg/kg/day goes unstated.

Q: For the compound CCCCNC(=O)N(CCCC)N=O , what TD50 is on record?
Ans: 2.23

====

# Test system: rodent lifetime carcinogenesis bioassay, tumor incidence TD50
# ASSAY_METHOD_TEXT: carcinogenic potency in animals, long-term in vivo studies, CPDB compilation (AID 1745844)
# TEST_PARAMETERS: mouse; strain Swiss albino; females; in drinking water; site: lung; lesion: adenoma; dosed 72 weeks; study length 72 weeks
REPORTED_PROPERTY: TD50 (mg/kg/day)
Provide only the numeric value, understood in mg/kg/day.

Q: Data request, read-out TD50, for CN(C)N
Ans: 5.58

====

# Tested on: rodent lifetime carcinogenesis bioassay, tumor incidence TD50
# ASSAY_METHOD_TEXT: carcinogenic potency in animals, long-term in vivo studies, CPDB compilation (AID 1745844)
# TEST_PARAMETERS: rat; strain Fischer 344; females; in drinking water; site: skin; lesion: basal-cell adenoma; dosed 98 weeks; study length 104 weeks
REPORTED_PROPERTY: TD50 (mg/kg/day)
# number only, unit mg/kg/day dropped from output

Q: Entry Cc1ccc(S(=O)(=O)Oc2ccc(N=Nc3ccc(-c4ccc(N=Nc5c(O)ccc6cc(S(=O)(=O)O)cc(S(=O)(=O)O)c56)c(C)c4)cc3C)cc2)cc1 : reported TD50 = ?
Ans: 28.2

====

# Tested on: rodent lifetime carcinogenesis bioassay, tumor incidence TD50
# ASSAY_METHOD_TEXT: carcinogenic potency in animals, long-term in vivo studies, CPDB compilation (AID 1745844)
# TEST_PARAMETERS: monkey; strain Cynomolgus [Macaca fascicularis]; both sexes; in feed; site: pharynx; lesion: squamous-cell carcinoma; dosed 928 weeks; study length 1135 weeks
REPORTED_PROPERTY: TD50 (mg/kg/day)
Number in mg/kg/day, nothing else.

Q: Checklist item: TD50 tested on rodent lifetime carcinogenesis bioassay, tumor incidence TD50, entry CN(N=O)C(N)=O , value?
Ans: 82.2
